Catalogue of EC50 readings, one per entry.
Biological target: UniProtKB O60603
Sequence (O60603 21-784): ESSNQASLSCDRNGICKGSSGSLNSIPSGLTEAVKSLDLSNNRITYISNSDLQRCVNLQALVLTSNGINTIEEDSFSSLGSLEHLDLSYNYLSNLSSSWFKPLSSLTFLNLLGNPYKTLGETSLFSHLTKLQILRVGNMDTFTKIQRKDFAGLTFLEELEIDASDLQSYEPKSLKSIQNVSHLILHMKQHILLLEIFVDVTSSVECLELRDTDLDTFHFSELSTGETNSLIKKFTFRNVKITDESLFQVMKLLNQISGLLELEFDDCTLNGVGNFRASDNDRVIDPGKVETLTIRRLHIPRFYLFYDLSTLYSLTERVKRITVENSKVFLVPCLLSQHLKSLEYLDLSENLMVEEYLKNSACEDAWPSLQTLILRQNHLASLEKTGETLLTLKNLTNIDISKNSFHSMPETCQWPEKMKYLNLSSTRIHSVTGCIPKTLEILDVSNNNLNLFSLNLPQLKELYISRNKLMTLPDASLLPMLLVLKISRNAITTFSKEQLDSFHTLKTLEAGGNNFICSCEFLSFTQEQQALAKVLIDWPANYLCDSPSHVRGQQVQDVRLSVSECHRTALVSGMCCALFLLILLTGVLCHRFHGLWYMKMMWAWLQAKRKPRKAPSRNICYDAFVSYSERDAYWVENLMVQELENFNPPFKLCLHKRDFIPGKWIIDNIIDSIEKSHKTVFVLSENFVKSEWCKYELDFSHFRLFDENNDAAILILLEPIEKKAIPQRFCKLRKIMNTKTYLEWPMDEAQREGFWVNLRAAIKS
Assay: TLR2 agonist screening assay, HEK-Blue TLR2 reporter cell line (NF-kB-driven SEAP, absorbance at 600 nm)
Type: cell-based
Design: host or cells: HEK-293 (HEK-Blue TLR2 reporter cell line)
Conditions: HEK-Blue TLR2 reporter cells, agonist mode; average of all runs (Table 4)
Text: TLRs are a class of cell-surface receptors expressed on many different cell types that recognize conserved structural motifs present on pathogen-derived molecules. TLR2 recognizes bacteria-derived lipopeptides. […] The in vitro TLR2 assay consists of a cell line that responds to TLR2 engagement by producing a factor that elicits a color change in the culture media and can be readily measured by various colorimetric detection methods. […]

Guide cases for EC50, answers given:
CCCCCCCO[C@@H]1CN(C(=O)c2ccc(C(=O)N3C[C@@H](C(=O)N[C@H]4C[C@@H]4c4ccccc4)[C@H](C(=O)N[C@H]4C[C@@H]4c4ccccc4)C3)cc2)C[C@H]1NC(=O)CCCCCC [Compound 155] :: > 1 µM
CCCCCCCCCC(=O)N[C@@H](CN1C(=O)c2ccc(C(=O)N3C[C@@H](C(=O)N[C@H]4C[C@@H]4c4ccccc4)[C@H](C(=O)N[C@H]4C[C@@H]4c4ccccc4)C3)cc2C1=O)C(=O)NCCCCCC [Compound 240] :: > 1 µM
CCCCCCCCCC(=O)N[C@@H](Cc1nc(-c2ccc(C(=O)N3C[C@@H](C(=O)N[C@H]4C[C@@H]4c4ccccc4)[C@H](C(=O)N[C@H]4C[C@@H]4c4ccccc4)C3)cc2)no1)C(=O)NCCCCCC [Compound 249] :: > 1 µM

Asked: Any idea what its EC50 is? The compound is CCCCCCCO[C@H]1CN(C(=O)c2ccc(C(=O)N3C[C@@H](C(=O)N[C@H]4C[C@@H]4c4ccccc4)[C@H](C(=O)N[C@H]4C[C@@H]4c4ccccc4)C3)cc2)C[C@@H]1C(=O)NCCCCCC (relative stereo) [Compound 113]
Given back: 0.051 to 0.35 µM

Asked: Any idea what its EC50 is? The compound is CCCCCCCCN1C(=O)N(Cc2ccc(C(=O)N3C[C@@H](C(=O)N[C@H]4C[C@@H]4c4ccccc4)[C@H](C(=O)N[C@H]4C[C@@H]4c4ccccc4)C3)cc2)C[C@H]1C(=O)NCCCCCC [Compound 167]
Given back: 0.0001 to 0.05 µM

Asked: Any idea what its EC50 is? The compound is CCCCCCNC(=O)[C@H](Cn1cnc(-c2ccc(C(=O)N3C[C@@H](C(=O)N[C@H]4C[C@@H]4c4ccccc4)[C@H](C(=O)N[C@H]4C[C@@H]4c4ccccc4)C3)cc2)c1)NC(=O)CCCCCC [Compound 214]
Given back: 0.051 to 0.35 µM

Asked: Any idea what its EC50 is? The compound is CCCCCCCC(=O)N1CCCN(S(=O)(=O)c2cccc(C(=O)N3C[C@@H](C(=O)N[C@H]4C[C@@H]4c4ccccc4)[C@H](C(=O)N[C@H]4C[C@@H]4c4ccccc4)C3)c2)C[C@@H]1C(=O)NCCCCCC (single isomer, unassigned) [Compound 201]
Given back: 0.351 to 1 µM
